methodNotes: chemical genetic growth profiling, strain panel (AID 1159580);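 further: tested at 20 µM; growth read once vehicle control cultures reached saturation at 30 °C; 1 = growth at the plate median or of vehicle wells; lower values mean less growth of the strain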
measurementConditions: S. cerevisiae deletion strains, growth OD, locus YPL241C, strain CIN2
Hit rate of the full screen: of about 5,500 compounds, about 2,000 (36%) were called active. Not shown: some 18% with an inconclusive outcome. No stated cut-off is given here; in the data, active means normalized growth mostly below about 0.91 (no sharp cut-off); inconclusive means no clear call, values can overlap the other calls; inactive means mostly above about 0.92. Some of the results follow.
Write down the outcome that applies. Available outcomes: 1 = active, -1 = inactive

These recorded examples may help you get a feel for the data.
| structureSmilesString | labelValue |
| --- | --- |
| O=C(CCc1ccc(O)cc1)c1c(O)cc(O)cc1O | -1 |
| COc1ccc([C@@H](C)C(=O)c2ccc(O)cc2O)cc1 | -1 |
| O=C1NCCN=C(c2ccccc2)c2ccccc21 | -1 |
| NC(=NCCCCCCN=C(N)N=C(N)Nc1ccc(Cl)cc1)N=C(N)Nc1ccc(Cl)cc1 | 1 |
| O=c1c(O)c(-c2ccccc2)oc2ccc3occc3c12 | -1 |

Outcome logged for O=c1c(O)c(-c2ccccc2)oc2cc(O)ccc12 in this assay:
1

Outcome logged for Cc1cc(S(=O)(=O)NCCNc2nccc(C(F)(F)F)n2)c(C)cc1Cl in this assay:
-1

Outcome logged for O=c1c(O)cccc2cc(O)c(O)c(O)c12 in this assay:
1

Outcome logged for CC[C@H]1OC(=O)[C@H](C)[C@@H](O[C@H]2C[C@@](C)(OC)[C@@H](O)[C@H](C)O2)[C@H](C)[C@@H](O[C@@H]2O[C@H](C)C[C@H](N(C)C)[C@H]2O)[C@](C)(O)C[C@@H](C)/C(=N/OCOCCOC)[C@H](C)[C@@H](O)[C@]1(C)O in this assay:
-1

###

Below: a set of entries, each annotated with reported normalized growth.
methodNotes: chemical genetic growth profiling, strain panel (AID 1159580)
measurementConditions: S. cerevisiae deletion strains, growth OD, locus YAL026C, strain drs2, active compounds read low
Screen size: about 5,500 compounds; about 2,000 (36%) were called active. About 18% were inconclusive and are not listed. Some of the results follow.

These recorded examples may help you get a feel for the data.
| compound | normalized growth |
| --- | --- |
| COC(=O)CC1C(C)(C(=O)c2ccoc2)CC2OCC34C(CC(=O)OC)C5(C)CC36OC3(C)OC1(C(OC(C)=O)C6(OC(C)=O)C5OC(=O)C(C)C)C24O3 (stereo not given) | 0.967 (inactive) |
| CN1CCCCC1c1ccc(-c2cccnc2)nc1 (stereo not given) | 0.965 (inactive) |
| CC(NC(C)(C)C)C(=O)c1cccc(Cl)c1 (stereo not given) | 1 (inactive) |
| NS(=O)(=O)c1cc2c(cc1Cl)NCNS2(=O)=O | 1.01 (inactive) |

Supply reported normalized growth belonging to this compound: CC(=O)NC1C(O)OC(COS(=O)(=O)O)C(OC2OC(C(=O)O)C(OC3OC(CO)C(OC4OC(C(=O)O)C(O)C(O)C4OS(=O)(=O)O)C(OS(=O)(=O)O)C3NS(=O)(=O)O)C(O)C2OS(=O)(=O)O)C1O (stereo not given)
0.974 (inactive)

###

methodNotes: chemical genetic growth profiling, strain panel (AID 1159580)
measurementConditions: S. cerevisiae deletion strains, growth OD, locus YNR049C, strain mso1, active compounds read low
The campaign covered roughly 5,500 compounds. About 2,000 (36%) were called active. Roughly 18% stayed inconclusive and do not appear here. This is one part of the list.
// classify: if (normalized growth < 1) y else n

| molecule | labelValue |
| --- | --- |
| O=C(/C=C/c1ccccc1)c1ccc(O)cc1O | y |
| CC1=C(C(=O)O)N2C(=O)[C@@H](NC(=O)[C@@H](N)c3ccc(O)cc3)[C@H]2SC1 | n |
| COc1cc2c(cc1OC)C(C)NCC2 (stereo not given) | y |

Check if normalized growth falls below 1 for COc1ccc(-c2c(O)c3c(OC)c4c(cc3oc2=O)OC(C)(C)C=C4)cc1 .
y

Check if normalized growth falls below 1 for CC(=O)OC1CCC2(O)CC1(C)CCC1C2CC1(C)C (stereo not given) .
n

###

methodNotes: chemical genetic growth profiling, strain panel (AID 1159580);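 further: tested at 20 µM; growth read once vehicle control cultures reached saturation at 30 °C; 1 = growth at the plate median or of vehicle wells; lower values mean less growth of the strain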
measurementConditions: S. cerevisiae deletion strains, growth OD, locus YLR027C, strain aat2, active compounds read low
Out of some 5,500 compounds screened, about 2,000 (36%) were called active. About 18% were inconclusive and are not listed. The list shows a part of the results.
parameterMeasured: normalized growth
Just the number.

These recorded examples may help you get a feel for the data.
| molecule | normalized growth |
| --- | --- |
| O=C1C=C(O)c2ccccc2C1=O | 0.935 |
| O=C1C=CC(=O)c2c(O)cccc21 | 0.984 |
| CCCN(CCC)c1c([N+](=O)[O-])cc(C(F)(F)F)cc1[N+](=O)[O-] | 1.01 |
| NNCc1ccccc1 | 0.991 |
| CNC(C)(C)Cc1ccccc1 | 1.02 |
| Cn1c(=O)[nH]c2ncn(C)c2c1=O | 1 |

Now for another entry.
Supply reported normalized growth belonging to this molecule: COc1ccc(NS(=O)(=O)c2ccc(N)cc2)nn1
1

###

Below: a set of entries, each annotated with reported normalized growth.
methodNotes: chemical genetic growth profiling, strain panel (AID 1159580);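 further: tested at 20 µM; growth read once vehicle control cultures reached saturation at 30 °C; 1 = growth at the plate median or of vehicle wells; lower values mean less growth of the strain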
measurementConditions: S. cerevisiae deletion strains, growth OD, locus YBR171W, strain sec66, active compounds read low
About 2,000 (36%) of roughly 5,500 compounds were called active. Inconclusive results (about 18%) are left out. This is one part of the list.
Just the number.

| compound | parameterMeasured | recordedValue |
| --- | --- | --- |
| COCC1=C(C(=O)OC(C)OC(=O)OC(C)C)N2C(=O)[C@@H](NC(=O)/C(=N\OC)c3csc(N)n3)[C@H]2SC1 (stereo partly drawn) | normalized growth | 0.968 |
| CC[C@H]1OC(=O)[C@H](C)[C@@H](O[C@H]2C[C@@](C)(OC)[C@@H](O)[C@H](C)O2)[C@H](C)[C@@H](O[C@@H]2O[C@H](C)C[C@H](N(C)C)[C@H]2O)[C@](C)(O)C[C@@H](C)/C(=N/OCOCCOC)[C@H](C)[C@@H](O)[C@]1(C)O | normalized growth | 1.03 |
| CC(=O)OC[C@@]1(O)C[C@@]23CCC4c5ccoc5CC[C@]4(C)C2CC[C@@H]1C3 (stereo partly drawn) | normalized growth | 0.986 |

Supply reported normalized growth belonging to this compound: CCCC(=O)Nc1ccc(OCC(O)CNC(C)C)c(C(C)=O)c1 (stereo not drawn)
1.02

Supply reported normalized growth belonging to this compound: O=C(N[C@@H](CO)[C@H](O)c1ccc([N+](=O)[O-])cc1)C(Cl)Cl
1.02

Supply reported normalized growth belonging to this compound: COc1cc(Cc2cnc(N)nc2N)cc(OC)c1OC
1.02

Supply reported normalized growth belonging to this compound: CCCCCCCCCCCCCCCC(=O)OC[C@H](NC(=O)C(Cl)Cl)[C@H](O)c1ccc([N+](=O)[O-])cc1
1.06

Supply reported normalized growth belonging to this compound: C=C(C)C1Cc2c(ccc3c(=O)c4c(oc23)COc2cc(OC)c(OC)cc2-4)O1 (stereo not drawn)
0.99

###

methodNotes: chemical genetic growth profiling, strain panel (AID 1159580);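 further: tested at 20 µM; growth read once vehicle control cultures reached saturation at 30 °C; 1 = growth at the plate median or of vehicle wells; lower values mean less growth of the strain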
measurementConditions: S. cerevisiae deletion strains, growth OD, locus YBR136W, strain MEC1, active compounds read low
The campaign covered roughly 5,500 compounds. About 2,000 (36%) were called active. Inconclusive results (about 18%) are left out. The list shows a part of the results.
parameterMeasured: normalized growth
Just the number.

These recorded examples may help you get a feel for the data.
| compound | normalized growth |
| --- | --- |
| FC(F)(F)c1ccncc1-c1nc(-c2ccc(Cl)cc2)cs1 | 0.982 |
| S=C(NCCc1csc2ccccc12)Nc1ccc(Cl)cc1 | 0.944 |

Supply reported normalized growth belonging to this compound: COc1ccc(Oc2ccc([N+](=O)[O-])cc2C(=O)O/N=C(/N)c2ccc(C(F)(F)F)cc2)cc1
0.996

Supply reported normalized growth belonging to this compound: S=C(NCc1cccs1)Nc1cc(Cl)cc(Cl)c1
0.945

Supply reported normalized growth belonging to this compound: O=[N+]([O-])c1cc(C(F)(F)F)ccc1Sc1n[nH]c(-c2cc(Cl)cc(Cl)c2)n1
0.936

Supply reported normalized growth belonging to this compound: Cc1cc2nc3c(Cl)c(O)c4ccccc4c3nc2cc1C
0.965

Supply reported normalized growth belonging to this compound: O=C(Nc1ccccc1Sc1ccc(C(F)(F)F)cc1[N+](=O)[O-])C(Cl)Cl
0.991

Supply reported normalized growth belonging to this compound: CCOC(=O)C(O)(c1ccc(NC(=O)c2ccc(Cl)c(Cl)c2)cc1)C(F)(F)F (stereo not given)
0.989

Supply reported normalized growth belonging to this compound: Cc1ccc2nc3c(nc2c1)-c1ccccc1C3=O
0.93

Supply reported normalized growth belonging to this compound: Cc1cc(Sc2c([N+](=O)[O-])cc(C(F)(F)F)cc2[N+](=O)[O-])c(Cl)cc1Cl
0.995
